assay.text: LAP4-GFP expression modulators in yeast, confirmation, cell-based, cherry picks, flow cytometry, mother/daughter gates (AID 2271);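 also: ratio of sample to DMSO plate mean so 100% equals DMSO level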
recorded.conditions: S. cerevisiae LAP4-GFP strain, 3 h, measured here: mother cell gate response, at 10 µM, stronger effect = higher value, 100 means same as DMSO control
Measured GFP response relative to DMSO by item
Your answer is read as %, so omit the unit and give the number.

Would you please look over these solved cases?
                                   compound  result_value
0  CC(NCCS(=O)(=O)c1ccc(Cl)cc1)c1cccc(Cl)c1 (stereo unspecified)          99.5
1  COc1ccc(S(=O)(=O)N2Cc3ccccc3CC2C(=O)O)cc1OC (stereo unspecified)          98.5
2  CCOC(=O)c1ccc(NC(=O)c2ccc3c(c2)C(=O)N(Cc2cccnc2)C3=O)cc1            94
3  Cc1[nH]n(-c2ccccc2)c(=O)c1C(c1ccccc1[N+](=O)[O-])C(C#N)C#N (stereo unspecified)           195
4        Cc1ccc(-n2ncc(C#N)c2/N=C/N(C)C)cc1           103
5  O=S(=O)(CCN(CCS(=O)(=O)C(F)(F)F)CC1CCCO1)C(F)(F)F (stereo unspecified)           210

Fill in the blank: the reported GFP response relative to DMSO of Cc1noc2ncnc(Sc3c(Cl)cccc3Cl)c12 is ____.
94

Tell me the measured GFP response relative to DMSO of COc1ccc(NC(=O)c2ccccc2NC(=O)c2ccccc2)cc1 , please.
89.7

GFP response relative to DMSO for COc1ccccc1CNC(=O)CS(=O)Cc1nc(-c2ccc(OC)c(OC)c2)oc1C (stereo unspecified) ?
96.1

Suppose we examine the compound Cc1ccc(-c2csc(NC(=O)c3cccs3)n2)cc1 ; what GFP response relative to DMSO value has been reported?
107

What does the data say about its GFP response relative to DMSO? Entry: Cc1cccn2c(N)c(-c3ccccc3)nc12
90.6
